Measured values drawn from patent US20080166749A1 for this set.

- System: activated recombinant MAP kinase
- method-description: Phosphorylation of GFP Erk sensors by MAP kinase, ^32P incorporation
- Format: biochemical
- measurement-parameters: 10 μM substrate, 100 ng MAP kinase, 30 minutes at 30° C.; mean ± standard deviation of triplicates
- Description: Experiments were terminated and samples processed as described previously in subsection D.4. Results presented in Table X represent means of triplicate determinations ±standard deviations of ^32P-incorporation in washed pellets as described earlier.
Where no end group is shown, it is not given here.
endpoint-name: ^32P-Incorporation (CPM)
Answer in CPM, number only, no unit symbol.

Erk-6: GFP mutant K8 with Erk kinase motif Met Thr Gly Pro Leu Ser Pro Gly Leu (MTGPLSPGL; not fully specified; printed as Met Thr Gly Pro Leu Ser Pro Gly Leu)    22498

The reported ^32P-Incorporation (CPM) of the substance Erk-5: GFP mutant K8 with Erk kinase motif Met Thr Gly Pro Leu Ser Pro Gly Tyr (MTGPLSPGY; not fully specified; printed as Met Thr Gly Pro Leu Ser Pro Gly Tyr) was 6455

The reported ^32P-Incorporation (CPM) of the substance Erk-4: GFP mutant K8 with Erk kinase motif Met Thr Gly Pro Leu Ser Pro Gly Phe (MTGPLSPGF; not fully specified; printed as Met Thr Gly Pro Leu Ser Pro Gly Phe) was 1982
